Source of measurements: PubChem BioAssay (NCI)

- Tested on: KM12 colon
- Assay info: NCI tumour cell line growth inhibition, 48 h; in the data active = GI50 below about 0.43 µM; inactive = the rest
Your answer must be one of the following: yes (1) = active, no (0) = inactive

Some solved cases for reference:
Compound	Target	Label class
COc1ccc2c(c1)OC1=C(C(=O)OC1)C2c1cc(OC)c(OC)c(OC)c1 (configuration not stated)	KM12 colon	yes (1)
O=CN1N=C(c2ccc(Cl)cc2)CC1c1cccc(Nc2ccnc3cc(Cl)ccc23)c1 (configuration not stated)	KM12 colon	no (0)
CC1(C)CC(n2cnc(-c3ccc(F)cc3)c2-c2ccnc(N)n2)CC(C)(C)N1	KM12 colon	no (0)
C=C[C@H]1CCC/C=C/[C@@H]2C[C@H](O)C[C@H]2[C@H](O)/C=C/C(=O)O1	KM12 colon	yes (1)
COc1ccc2c(CN3CCC[C@H]3C(=O)O)cc3cc4c(cc3c2c1)OCO4	KM12 colon	no (0)
Cc1cc(I)cc(CN(C)CCN2CCCC2)c1O	KM12 colon	no (0)

Consider the additional compound presented here.
query: Which outcome was assigned to C=CCN1C=CC(=O)[C@H](O[Si](C)(C)C(C)(C)C)[C@@H]1/C=C/c1ccccc1 in this test?
result: no (0)

====

- Test system: SF-295 CNS
- Assay info: NCI tumour cell line growth inhibition, 48 h
Kindly state TGI for each of the entries shown.

Here is how some compounds turned out for TGI.
Compound	Result
Cc1cccc(C)c1NC(=S)NC=C(C(N)=O)C(N)=O	> 100 µM
O=C1C(=O)c2ccccc2C(O)=C1CN(CCCl)CCCl	> 100 µM

Could you tell me TGI for each of these compounds? They are listed below.
1. COC(=O)C12CC(c3ccccc31)C1C(=O)OC(=O)C12 (stereo not given)
2. CC(C)C1CCC/C=C/C=C/C=C/C=C/C(OC2OC(C)C(O)C(N)C2O)CC2OC(O)(CC(O)CC(O)C(O)CCC(=O)O1)CC(O)C2C(=O)O (stereo not given)
3. CCN(CC)C(=S)SNCc1ccc(S(N)(=O)=O)cc1
4. O=C([O][Hg][CH2]C1COCC([CH2][Hg][O]C(=O)c2ccccc2)O1)c1ccccc1 (stereo not given)

result:
["> 100 µM", "> 52.5 µM", "34.9 µM", "35.7 µM"]

Could you tell me TGI for each of these compounds? They are listed below.
1. CC1=CC(=O)C(=O)C2=C1OC1(C2)C(C)CCC2C3(C)CCC(O)C(C)(C)C3CCC21C (stereo not given)
2. O=c1c2cccnc2cc(-c2ccccc2)n1CCO
3. COc1ccc(NC(C)=O)cc1C1CCC(=O)N1 (stereo not given)
4. COC(=O)C12CC3CC(C1)CC(C(=O)OC)(C3)C2

result:
1. 35.3 µM
2. > 100 µM
3. > 100 µM
4. > 100 µM

====

- Tested on: OVCAR-5 ovarian
- Assay info: NCI tumour cell line growth inhibition, 48 h; in the data active = GI50 below about 0.43 µM; inactive = the rest
Your answer must be one of the following: active, inactive

Some solved cases for reference:
Compound	Label class
CC[O-].CC[O-].O=C1C(c2ccccc2)=C([O-])c2ccccc21.O=C1C(c2ccccc2)=C([O-])c2ccccc21.[Ti+4]	inactive
CCC[CH2][Sn]([CH2]CCC)([O]C(=O)C(N)CSC)[O]C(=O)C(N)CSC (centres undefined)	inactive
Cc1cc(N2CCCC2)nc(NC2CCCC(Nc3ccnc4cc(Cl)ccc34)C2)n1 (centres undefined)	inactive
CC[Si](CC)(CC)OC[C@]1([C@@H]2COC(C)(C)O2)CC=CC(=O)O1	inactive
COc1c(Cl)c2c(c(OC)c1OC)-c1ccc(SC)c(=O)cc1[C@@H](NC(=O)OCC(F)(F)F)CC2	active

query: Which outcome was assigned to COc1ccc2c(c1)OC1=C(C(=O)OC1)C2c1cc(OC)c(OC)c(OC)c1 (centres undefined) in this test?
result: inactive

query: Which outcome was assigned to NC(=O)c1ccc2c(-c3ccnc(NCCCO)n3)c(-c3ccc(F)cc3)nn2c1 in this test?
result: inactive

query: Which outcome was assigned to CCCN1CCN(c2ccc3nc(-c4ccc5nc(-c6cc(OC)ccc6OC)[nH]c5c4)[nH]c3c2)CC1 in this test?
result: inactive

query: Which outcome was assigned to O=C(N/N=C/c1ccccc1Cl)c1ccccc1Nc1ccnc(C(F)(F)F)c1 in this test?
result: inactive

query: Which outcome was assigned to O=C([CH-]C(=O)c1ccccc1)c1ccccc1.O=C([CH-]C(=O)c1ccccc1)c1ccccc1.O=C([CH-]C(=O)c1ccccc1)c1ccccc1.[OH3+].[Y+3] in this test?
result: inactive

query: Which outcome was assigned to COc1ccc2c(CN3CCC[C@H]3C(=O)O)cc3cc4c(cc3c2c1)OCO4 in this test?
result: inactive

====

- System: COLO 205 colon
- Assay info: NCI tumour cell line growth inhibition, 48 h
Kindly state TGI for each of the entries shown.

Here is how some compounds turned out for TGI.
Compound	Observed property	Result
[N-]=[NH+]CC(=O)OC(COCc1ccccc1)COCc1ccccc1	TGI	> 100 µM
CCCCC(=O)NC1(c2cc3ccccc3s2)CCCCC1	TGI	> 100 µM
CC(C)C1CCC/C=C/C=C/C=C/C=C/C(OC2OC(C)C(O)C(N)C2O)CC2OC(O)(CC(O)CC(O)C(O)CCC(=O)O1)CC(O)C2C(=O)O (centres undefined)	TGI	> 52.5 µM
CC1=NN(C(=O)c2ccccc2O)C(=O)/C1=C/c1ccccc1O	TGI	> 89.1 µM
COc1ccc(-c2ccc(/C=N/n3c(COc4ccc(Cl)cc4Cl)nn(CN4CCN(C)CC4)c3=S)o2)c([N+](=O)[O-])c1	TGI	> 100 µM

Could you tell me TGI for each of these compounds? They are listed below.
1. NC(=O)C(c1ccccc1)N1OC2C(=O)N(c3cccc4ccccc34)C(=O)C2C1c1c2ccccc2c(Cl)c2ccccc12 (centres undefined)
2. COc1cc2cc(C(=O)Nc3cc(N)c4ccccc4c3CCCl)[nH]c2c(OC)c1OC
3. CC[Si](CC)(CC)OC[C@]1([C@@H]2COC(C)(C)O2)CC=CC(=O)O1
4. Nc1ccc2c3c(n(CCCCl)c(=O)c2c1)-c1cc2c(cc1C3=O)OCO2
5. CC/C=C/C(=O)CC(O)(C(F)(F)F)C(F)(F)F

result:
1. 14.9 µM
2. 0.254 µM
3. > 100 µM
4. > 100 µM
5. > 100 µM

Could you tell me TGI for each of these compounds? They are listed below.
1. CN(C)CCCCN1c2ccccc2Sc2cc(N=[N+]=[N-])ccc21
2. CC[O-].CC[O-].O=C1C(c2ccccc2)=C([O-])c2ccccc21.O=C1C(c2ccccc2)=C([O-])c2ccccc21.[Ti+4]
3. O=C(CC12CC3CC(CC(C3)C1)C2)NCCOCCOCCOCCNC(=O)c1cc2c(o1)C(=O)c1ccccc1C2=O

result:
["3.09 µM", "> 100 µM", "3.33 µM"]

Could you tell me TGI for each of these compounds? They are listed below.
1. O=[N+]([O-])c1ccc2[nH]ncc2c1Cl
2. CC/C(=C(/CC)c1ccc(O)cc1)c1ccc([O-])cc1.CC/C(=C(/CC)c1ccc(O)cc1)c1ccc([O-])cc1.O=C([CH-]C(=O)c1ccccc1)c1ccccc1.O=C([CH-]C(=O)c1ccccc1)c1ccccc1.[Ti+4]
3. Cc1nc2cc(N)c(F)cc2[nH]1
4. O=C1NC2CCC(C2)C1c1ccccc1 (centres undefined)
5. CCOC(=O)[C@@H]1ON2O[C@H](OC3CCCC3(c3ccccc3)c3ccccc3)C[C@H]3OC(=O)[C@@H]1C32 (some centres undefined)
6. CN(C)C(=O)Nc1cc2c3c(c1)CCCN3CCC2

result:
1: 28.2 µM; 2: > 100 µM; 3: > 100 µM; 4: > 100 µM; 5: > 100 µM; 6: > 10 µM

====

- Test system: OVCAR-5 ovarian
- Assay info: NCI tumour cell line growth inhibition, 48 h
Observed property: TGI

Here is how some compounds turned out for TGI.
Compound	Target	Result
O=C(CCc1ccc(O)cc1)NCCc1cccc(OCc2ccccc2)c1	OVCAR-5 ovarian	> 100 µM
c1cc(OCCN2CCCCC2)ccc1CNc1ccc2nc(CCC3CCCCC3)[nH]c2c1	OVCAR-5 ovarian	5.64 µM
COc1ccc2c(c1)N=C1CSC(c3cccc(Br)c3)N1C2 (stereo unspecified)	OVCAR-5 ovarian	56.8 µM

Could you tell me TGI for each of these compounds? They are listed below.
1. C[C@]12CC[C@H](OCCC#N)CC1=CC[C@@H]1C2CC[C@]2(C)/C(=N/OCCC#N)CCC12 (stereo partly specified)
2. COc1ccc(NC(C)=O)cc1C1CCC(=O)N1 (stereo unspecified)
3. COc1cc(C2C3=C(COC3=O)Oc3cc4c(cc32)OCO4)ccc1OC(C)=O (stereo unspecified)
4. COc1ccc(/C=C2\CCCCCC2=O)cc1

result:
1. > 100 µM
2. > 100 µM
3. > 100 µM
4. > 100 µM

Could you tell me TGI for each of these compounds? They are listed below.
1. COc1ccc(-c2ccc(/C=N/n3c(COc4ccc(Cl)cc4Cl)nn(CN4CCN(C)CC4)c3=S)o2)c([N+](=O)[O-])c1
2. Cc1ccc(C(=O)C(Cl)C(Cl)c2ccc(C)cc2)cc1 (stereo unspecified)
3. O=C(O)C1Cc2c([nH]c3ccccc23)C=N1 (stereo unspecified)
4. Cn1nc(-c2ccccc2)nc1[N+](=O)[O-]

result:
["97.1 µM", "33 µM", "> 100 µM", "> 10 µM"]
